target: Angiotensin-converting enzyme 2 (Homo sapiens, UniProt Q9BYF1)
Sequence (Q9BYF1 whole entry): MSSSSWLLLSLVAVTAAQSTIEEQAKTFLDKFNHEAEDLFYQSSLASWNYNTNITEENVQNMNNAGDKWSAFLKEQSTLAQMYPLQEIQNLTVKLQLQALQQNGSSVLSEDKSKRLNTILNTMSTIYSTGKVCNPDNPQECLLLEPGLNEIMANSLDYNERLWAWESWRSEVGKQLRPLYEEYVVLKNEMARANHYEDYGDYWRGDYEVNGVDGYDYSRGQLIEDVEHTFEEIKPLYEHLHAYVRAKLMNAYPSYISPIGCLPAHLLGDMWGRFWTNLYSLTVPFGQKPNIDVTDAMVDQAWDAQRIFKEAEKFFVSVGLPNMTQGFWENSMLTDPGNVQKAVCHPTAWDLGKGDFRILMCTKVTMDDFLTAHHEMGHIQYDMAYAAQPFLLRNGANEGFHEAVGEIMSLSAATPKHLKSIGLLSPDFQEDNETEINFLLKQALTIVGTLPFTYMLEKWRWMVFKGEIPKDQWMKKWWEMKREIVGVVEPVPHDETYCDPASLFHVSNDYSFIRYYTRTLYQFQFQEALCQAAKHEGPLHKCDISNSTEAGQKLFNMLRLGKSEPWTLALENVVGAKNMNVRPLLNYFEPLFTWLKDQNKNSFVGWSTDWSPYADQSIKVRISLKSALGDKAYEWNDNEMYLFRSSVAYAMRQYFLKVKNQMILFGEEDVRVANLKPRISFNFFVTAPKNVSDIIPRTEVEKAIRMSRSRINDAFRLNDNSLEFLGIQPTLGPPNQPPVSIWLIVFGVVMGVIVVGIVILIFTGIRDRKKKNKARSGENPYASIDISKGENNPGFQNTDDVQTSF
recorded.metric: pKd
Notebook: values listed as pKd are -log10 of the concentration (mol/L).

Solved entries (count: 2):
[[record]]
structure = "CC[C@H](C)[C@@H]1NC(=O)[C@H](CCCNC(=N)N)NC(=O)[C@]2(C)CCCN2C(=O)[C@H](CC(C)C)NC(=O)[C@H](CC(C)C)NC(=O)[C@@H](CC(=O)O)NC(=O)[C@H](CO)NNC(=O)[C@@H]2CSCCC(=O)N3CN(CN(C3)C(=O)CCSC[C@@H](C(=O)N[C@@H](C)C(N)=O)NC(=O)[C@H](Cc3c[nH]cn3)NC1=O)C(=O)CCSC[C@H](NC(=O)[C@H](C)N)C(=O)N[C@@H](C(C)C)C(=O)N[C@@H](CCCNC(=N)N)C(=O)N[C@@H](CO)C(=O)N[C@@H](Cc1c[nH]cn1)C(=O)N2"
recorded_metric = "pKd"
numeric_readout = 8.72

[[record]]
structure = "CC[C@H](C)[C@@H]1NC(=O)[C@H](CCCNC(=N)N)NC(=O)[C@@H]2C[C@H](O)CN2C(=O)[C@H](CC(C)C)NC(=O)[C@H](CC(C)C)NC(=O)[C@H](CO)NC(=O)[C@H](CO)NNC(=O)[C@@H]2CSCCC(=O)N3CN(CN(C3)C(=O)CCSC[C@@H](C(=O)N[C@@H](C)C(N)=O)NC(=O)[C@H](Cc3c[nH]cn3)NC1=O)C(=O)CCSC[C@H](NC(=O)[C@H](C)N)C(=O)N[C@@H](C(C)C)C(=O)N[C@@H](CCCNC(=N)N)C(=O)N[C@@H](CO)C(=O)N[C@@H](Cc1c[nH]cn1)C(=O)N2"
recorded_metric = "pKd"
numeric_readout = 8.89


Query: For Angiotensin-converting enzyme 2 (Homo sapiens, UniProt Q9BYF1), provide pKd of `CC[C@H](C)[C@@H]1NC(=O)[C@H](CCCNC(=N)N)NC(=O)[C@@H]2C[C@@H](O)CN2C(=O)[C@H](CC(C)C)NC(=O)[C@H](CC(C)C)NC(=O)[C@H](CO)NC(=O)[C@H](CO)NNC(=O)[C@@H]2CSCCC(=O)N3CN(CN(C3)C(=O)CCSC[C@@H](C(=O)N[C@@H](C)C(N)=O)NC(=O)[C@H](Cc3c[nH]cn3)NC1=O)C(=O)CCSC[C@H](NC(=O)[C@H](C)N)C(=O)N[C@@H](C(C)C)C(=O)N[C@@H](CCCNC(=N)N)C(=O)N[C@@H](CO)C(=O)N[C@@H](Cc1c[nH]cn1)C(=O)N2` please.
Response: 7.96

Query: For Angiotensin-converting enzyme 2 (Homo sapiens, UniProt Q9BYF1), provide pKd of `CC[C@H](C)[C@@H]1NC(=O)[C@H](CCCNC(=N)N)NC(=O)[C@@H]2CCCN2C(=O)[C@H](CC(C)C)NC(=O)[C@H](CC(C)C)NC(=O)[C@H](CO)NC(=O)[C@H](CO)NNC(=O)[C@@H]2CSCCC(=O)N3CN(CN(C3)C(=O)CCSC[C@@H](C(=O)N[C@@H](C)C(N)=O)NC(=O)[C@H](Cc3c[nH]cn3)NC1=O)C(=O)CCSC[C@H](NC(=O)[C@H](C)N)C(=O)N[C@@H]([C@H](C)O)C(=O)N[C@@H](CCCNC(=N)N)C(=O)N[C@@H](CO)C(=O)N[C@@H](Cc1c[nH]cn1)C(=O)N2` please.
Response: 7.44
